target: T1, RlpA-Δ32·MltF2 complex (MST) (P. aeruginosa PAO1, UniProt Q9X6V6;Q9HZY1, amine reactive RED-NHS dye)
T1 sequence 1: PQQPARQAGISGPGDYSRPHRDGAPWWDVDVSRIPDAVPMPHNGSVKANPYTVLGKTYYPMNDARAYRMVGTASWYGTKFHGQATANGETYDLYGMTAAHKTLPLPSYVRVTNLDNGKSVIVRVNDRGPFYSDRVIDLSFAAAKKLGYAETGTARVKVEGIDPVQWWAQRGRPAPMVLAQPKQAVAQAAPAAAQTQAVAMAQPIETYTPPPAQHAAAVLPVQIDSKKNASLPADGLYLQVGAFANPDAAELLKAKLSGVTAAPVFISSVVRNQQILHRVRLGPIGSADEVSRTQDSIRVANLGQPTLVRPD
T1 sequence 2: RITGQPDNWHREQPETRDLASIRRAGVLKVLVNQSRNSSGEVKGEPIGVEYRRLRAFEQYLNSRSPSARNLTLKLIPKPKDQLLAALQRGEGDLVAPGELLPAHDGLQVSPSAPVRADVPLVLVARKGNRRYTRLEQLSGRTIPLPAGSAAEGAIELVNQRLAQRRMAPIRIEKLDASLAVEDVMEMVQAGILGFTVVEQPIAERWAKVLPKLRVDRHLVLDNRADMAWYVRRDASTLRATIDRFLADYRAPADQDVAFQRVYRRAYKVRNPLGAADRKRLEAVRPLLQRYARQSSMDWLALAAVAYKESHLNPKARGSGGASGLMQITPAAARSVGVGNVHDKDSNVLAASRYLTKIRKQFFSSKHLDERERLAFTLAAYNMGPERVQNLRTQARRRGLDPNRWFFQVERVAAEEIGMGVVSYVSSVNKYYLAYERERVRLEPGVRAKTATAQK
procedure.summary: MST
condition.label: both partners purified
measurement.name: pKd
Scale note: pKd = -log10(concentration in M).

# input I am curious: what pKd value has been reported for SltB1 (enzyme, P. aeruginosa PAO1, UniProt Q9HX24 1-340, looked up) GDYDGSPQVAEFVSEMTRDYGFAGEQLMGLFRDVNRKQSILDAISRPAERVKQWKEYRPIFISDARISRGVDFWNKHAEDLARAEKEYGVPAEIIVSIIGVETFFGRNTGSYRVMDALSTLGFDYPPRADFFRKELREFLLLAREQQVDPLSLTGSYAGAMGLPQFMPSSFRAYAVDFDGDGHINIWSDPTDAIGSVASYFKQHGWVTGEPVVSVAEINDESAESAVTRGVDPTMSLGELRARGWRTHDALRDDQKVTAMRFVGDKGIEYWVGLPNFYVITRYNRSAMYAMAVYQLAGEIARARGAH ?
# output 7.02

# input I am curious: what pKd value has been reported for PilA (natural protein, source: E. coli, purified (Ni-NTA or Strep-Tactin)) PQYQNYVARSEGASALATINPLKTTVEESLSRGIAGSKIKIGTTASTATETYVGVEPDANKLGVIAVAIEDSGAGDITFTFQTGTSSPKNATKVITLNRTADGVWACKSTQDPMFTPKGCDN ?
# output 6.51

# input I am curious: what pKd value has been reported for MltB (enzyme, P. aeruginosa PAO1, UniProt Q9HVX3 1-367, looked up) SSEPTPPPKPAAKPQARTVISPRPVRQSVQPILPLRGDYANNPAAQHFIDRMVSQHGFNRQQLHDLFAQTQRLDWVIRLMDRQAPTYTPPSGPNGAWLRYRKKFVTPGNVQNGVLFWDQYETDLQRASRVYGVPPEIIVGIIGVETRWGRVMGKTRIIDALSTLSFSYPRRAEFFSGELEQFLLQARKEGTDPLALRGSYAGAMGYGQFMPSSFTKYAVDFDGDGHIDLWNPRDAIGSVANYFKQHGWVSGDRVAVPASGRAPSLEDGFKTLYPLDVLASAGLRPQGPLGGHRQASLLRLDMGRNYQYWYGLPNFYVITRYNHSTHYAMAVWELGKEVDRVRHRSVVRQD ?
# output 6.96

# input I am curious: what pKd value has been reported for PA4063 (natural protein, source: E. coli, purified (Ni-NTA or Strep-Tactin)) HDDHDHDHAHGSLGKHEHGVAQLNVALDGKTLELELDSPAMNLVGFEHAASTDADKAAVAKARAQLEKPLELFALPVTAGCSVASQELRSPLFGDKAPAHAHKEKAGHEHEHEHEHEHGHADIHAHYQLSCEKPELLKLLTLAEFFKRFPATQKIQVQLIGPDGQKGADLAPASAELKL ?
# output 6.98

# input I am curious: what pKd value has been reported for MltA (enzyme, P. aeruginosa PAO1, UniProt Q9I4B6 1-385, looked up) DDGKKEPPPKPAEVTTYNSVPWDALPATSDADLLAGFNAWRSACARLAKDPVWGEPCASATTVAADPTAVRAFLQERMQVYSLRSSSNGDQGLITGYYEPVYHGSLSQGEKTPVPVYGVPDDLVVVALESVYPELKGKRLRGRLEGRVLKPYDDAATIRDNGSSAPVLAWLGDPMDLQFLQIQGSGRIQLEDGRQLRIGYGDQNGHPYKPVGRWLVEQGLVPKEEISMKRIRDWAEANPQRVSELLASNPSFVFFSLRPDSDEGPRGSLNVPLTDGYSVAIDRKVIPLGSLMWLSTTRPDDGSAVVRPVAAQDTGGAIVGEVRADLFWGTGDAAGELAGHMKQPGRLWLLWPKGAPLPAS ?
# output 7.46
